Kd listing for selected binders.
molecular target: T1, SIRPA_V1_IgV (human, UniProt P78324 31-149); assay: SPR Biacore T200, antibody captured on anti-human IgG (Fc), SIRPA_V1_IgV as analyte, 1:1 model
T1 construct: Secreted recombinant protein from FreeStyle 293F cells
T1 sequence (P78324 other isoform, or with tags, fused parts or gaps limits assumed): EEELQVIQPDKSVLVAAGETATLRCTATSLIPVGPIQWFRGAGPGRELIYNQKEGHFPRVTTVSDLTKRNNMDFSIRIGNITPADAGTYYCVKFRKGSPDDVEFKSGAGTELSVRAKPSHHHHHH
quantity: Kd (nM)

[[record]]
binder = "humanized anti-SIRPA antibody hD13_H1L3 (antibody, human IgG4 S228P, kappa, F234A L235A, V domains shown, hH1 heavy chain (IgG4proFALA) and hL3 kappa light chain; also called hD13_HIL3; HIL3 antibody) VH: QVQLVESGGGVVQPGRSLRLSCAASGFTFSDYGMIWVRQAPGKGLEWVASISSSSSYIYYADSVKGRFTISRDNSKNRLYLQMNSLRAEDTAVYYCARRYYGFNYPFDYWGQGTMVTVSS VL: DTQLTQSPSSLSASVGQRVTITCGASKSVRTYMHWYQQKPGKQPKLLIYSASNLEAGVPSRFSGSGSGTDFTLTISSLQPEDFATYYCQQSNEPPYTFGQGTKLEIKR"
quantity = "Kd"
measurement = 0.0785

[[record]]
binder = "humanized anti-SIRPA antibody hD13_H2L3 (antibody, human IgG4 S228P, kappa, F234A L235A, V domains shown, hH2 heavy chain (IgG4proFALA) and hL3 kappa light chain; also called H2L3 antibody) VH: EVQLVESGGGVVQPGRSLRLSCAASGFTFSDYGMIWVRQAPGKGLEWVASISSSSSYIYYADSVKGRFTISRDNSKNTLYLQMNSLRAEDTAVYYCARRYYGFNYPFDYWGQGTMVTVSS VL: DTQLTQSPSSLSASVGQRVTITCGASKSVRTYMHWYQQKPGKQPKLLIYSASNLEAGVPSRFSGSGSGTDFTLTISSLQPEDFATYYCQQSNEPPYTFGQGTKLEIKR"
quantity = "Kd"
measurement = 0.0859

[[record]]
binder = "humanized anti-SIRPA antibody hD13_H2L2 (antibody, human IgG4 S228P, kappa, F234A L235A, V domains shown, hH2 heavy chain (IgG4proFALA) and hL2 kappa light chain; also called H2L2 antibody) VH: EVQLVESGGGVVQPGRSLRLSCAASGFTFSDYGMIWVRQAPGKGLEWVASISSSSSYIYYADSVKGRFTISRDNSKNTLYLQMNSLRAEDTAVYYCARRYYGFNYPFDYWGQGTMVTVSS VL: AIQLTQSPSSLSASVGQRVTITCGASKSVRTYMHWYQQKPGKAPKLLIYSASNLEAGVPSRFSGSGSGTDFTLTISSLQPEDFATYYCQQSNEPPYTFGQGTKLEIKR"
quantity = "Kd"
measurement = 0.131

